Assay: AUC (0 to 48 hrs) in cynomolgus monkey at […], iv
Format: ADME, organism-based, Macaca fascicularis
Parameters: time < 48 hr, dose 0.25 mg/kg, route intravenous
Conditions: plasma
measurement.label: AUC(0-t) at 48 h (ng·h/mL)

1) Cc1cc(C(=O)Nc2cc(Oc3ccc4nc(NC(=O)C5CC5)cn4n3)ccc2C)n(C)n1	1310

* * *

Assay: Metabolic stability in human liver microsomes at 1 umol/L
Format: ADME, Microsome
Conditions: read-out: Stability
This section presents molecules with their documented microsomal CLint at 1 µM values.
measurement.label: microsomal CLint at 1 µM

1. Cc1cc(C(=O)Nc2cccc(Oc3ccc4nc(NC(=O)C5CC5)cn4n3)c2)n(C)n1	6 µL/min/mg
2. Cc1cc(C(=O)Nc2cc(Oc3ccc4nc(NC(=O)C5CC5)cn4n3)ccc2F)n(C)n1	9 µL/min/mg
3. Cc1cc(C(=O)Nc2cc(Oc3ccc4nc(NC(=O)C5CC5)cn4n3)ccc2C)n(C)n1	2 µL/min/mg

* * *

Assay: Mean residence time in Crl:CD (SD) albino rat at 0.5 mg/kg, po
Format: ADME, organism-based
Design: dose 0.5 mg/kg, route oral
Conditions: in vivo
measurement.label: MRT (h)

1. Cc1cc(C(=O)Nc2cc(Oc3ccc4nc(NC(=O)C5CC5)cn4n3)ccc2C)n(C)n1	3.3

* * *

Test: AUC (0 to 24 hrs) in Crl:CD (SD) albino rat at […], iv
Format: ADME, organism-based
Parameters: time < 24 hr, dose 0.25 mg/kg, route intravenous
Conditions: plasma
measurement.label: AUC(0-t) at 24 h (ng·h/mL)

1. Cc1cc(C(=O)Nc2cc(Oc3ccc4nc(NC(=O)C5CC5)cn4n3)ccc2C)n(C)n1	571

* * *

Assay: Plasma concentration in athymic BALB/cAcl-nu/nu mouse xenografted with human A549 cells at 1 mg/kg, po measured at 1 hr by LC/MS/MS analysis
Format: ADME, organism-based
Design: dose 1 mg/kg, route oral
measurement.label: concentration at 1 h (ng/mL)

1) Cc1cc(C(=O)Nc2cc(Oc3ccc4nc(NC(=O)C5CC5)cn4n3)ccc2C)n(C)n1 [TAK-593]	451

* * *

Assay: AUC (0 to 24 hrs) in Crl:CD (SD) albino rat at 0.5 mg/kg, po
Assay type: ADME, organism-based
Parameters: time < 24 hr, dose 0.5 mg/kg, route oral
Conditions: plasma
measurement.label: AUC(0-t) at 24 h (ng·h/mL)

1. Cc1cc(C(=O)Nc2cc(Oc3ccc4nc(NC(=O)C5CC5)cn4n3)ccc2C)n(C)n1	226

* * *

Assay: Cmax in Crl:CD (SD) albino rat at 0.5 mg/kg, po
Format: ADME, organism-based
Parameters: dose 0.5 mg/kg, route oral
Conditions: in vivo
measurement.label: Cmax (ng/mL)

1) Cc1cc(C(=O)Nc2cc(Oc3ccc4nc(NC(=O)C5CC5)cn4n3)ccc2C)n(C)n1	56

* * *

Assay: Drug uptake in athymic BALB/cAcl-nu/nu mouse lung xenografted with human A549 cells at 1 mg/kg, po measured at 8 hrs by LC/MS/MS analysis
Type: ADME, organism-based
Parameters: dose 1 mg/kg, route oral
Settings: read-out: Drug uptake
measurement.label: concentration at 8 h

1. Cc1cc(C(=O)Nc2cc(Oc3ccc4nc(NC(=O)C5CC5)cn4n3)ccc2C)n(C)n1 [TAK-593]	< 15 ng/g

* * *

Experiment: Plasma concentration in athymic BALB/cAcl-nu/nu mouse xenografted with human A549 cells at 1 mg/kg, po measured at 8 hrs by LC/MS/MS analysis
Type: ADME, organism-based
Design: dose 1 mg/kg, route oral
measurement.label: concentration at 8 h

1. Cc1cc(C(=O)Nc2cc(Oc3ccc4nc(NC(=O)C5CC5)cn4n3)ccc2C)n(C)n1	< 3 ng/mL

* * *

Assay: Oral bioavailability in cynomolgus monkey at 0.5 mg/kg
Format: ADME, organism-based, Macaca fascicularis
Conditions: in vivo
measurement.label: bioavailability (%)

1. Cc1cc(C(=O)Nc2cc(Oc3ccc4nc(NC(=O)C5CC5)cn4n3)ccc2C)n(C)n1 [TAK-593]	57.6

* * *

Assay: Metabolic stability in mouse liver microsomes at 1 umol/L
Format: ADME, Microsome
Conditions: read-out: Stability
measurement.label: microsomal CLint at 1 µM (µL/min/mg)

1. Cc1cc(C(=O)Nc2cc(Oc3ccc4nc(NC(=O)C5CC5)cn4n3)ccc2F)n(C)n1	54
2. Cc1cc(C(=O)Nc2cc(Oc3ccc4nc(NC(=O)C5CC5)cn4n3)ccc2C)n(C)n1 [TAK-593]	31
3. Cc1cc(C(=O)Nc2cccc(Oc3ccc4nc(NC(=O)C5CC5)cn4n3)c2)n(C)n1	43

* * *

Attribute: logD
Test: Lipophilicity, log D of the compound at pH 7.4
Type: physicochemical
Conditions: buffer
measurement.label: logD

1) Cc1cc(C(=O)Nc2cccc(Oc3ccc4nc(NC(=O)C5CC5)cn4n3)c2)n(C)n1	2.28
2) Cc1cc(C(=O)Nc2cc(Oc3ccc4nc(NC(=O)C5CC5)cn4n3)ccc2C)n(C)n1	2.24
3) Cc1cc(C(=O)Nc2cc(Oc3ccc4nc(NC(=O)C5CC5)cn4n3)ccc2F)n(C)n1	2.21

* * *

Test: Cmax in cynomolgus monkey at 0.5 mg/kg, po
Type: ADME, organism-based, Macaca fascicularis
Set-up: dose 0.5 mg/kg, route oral
Settings: in vivo
measurement.label: Cmax

1) Cc1cc(C(=O)Nc2cc(Oc3ccc4nc(NC(=O)C5CC5)cn4n3)ccc2C)n(C)n1	129 ng/mL
